src = paper PMC12621043

- Test system: MAP2K4A (Homo sapiens)
- Construct: purchased in-house DSF kinase panel (SGC-style construct names; the trailing letter is the construct ID)
- Sequence (P45985 102-367): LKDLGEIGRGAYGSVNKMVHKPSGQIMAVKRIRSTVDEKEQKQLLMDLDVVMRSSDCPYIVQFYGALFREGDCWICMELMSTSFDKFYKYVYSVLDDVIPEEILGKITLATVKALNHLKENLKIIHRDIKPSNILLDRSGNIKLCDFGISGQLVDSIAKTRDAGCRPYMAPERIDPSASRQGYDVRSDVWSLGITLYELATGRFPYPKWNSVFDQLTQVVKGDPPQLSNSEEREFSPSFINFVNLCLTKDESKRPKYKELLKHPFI
- Measurement description: DSF Tm panel
- Assay type: binding
- Measurement context: 10 μM compound
Reported ΔTm at 10 µM by item:
A complete answer gives the number and then names the unit.

COc1ccc(CNC(=O)Nc2ccc3cc2OCCOCCNc2ccn4ncc-3c4n2)cc1 [compound 31]: 4.3 °C

*Q* What value of ΔTm at 10 µM has been recorded for this entry: COc1ccccc1CNC(=O)Nc1ccc2cc1OCCOCCNc1ccn3ncc-2c3n1 [compound 29]
*A* 2.8 °C

*Q* # repeat for O=C(NCc1ccccc1C(F)(F)F)Nc1ccc2cc1OCCOCCNc1ccn3ncc-2c3n1 [compound 27]
*A* 5.1 °C

----------
- Test system: UniProt:Q8TD08
- Sequence (Q8TD08 13-304 limits assumed): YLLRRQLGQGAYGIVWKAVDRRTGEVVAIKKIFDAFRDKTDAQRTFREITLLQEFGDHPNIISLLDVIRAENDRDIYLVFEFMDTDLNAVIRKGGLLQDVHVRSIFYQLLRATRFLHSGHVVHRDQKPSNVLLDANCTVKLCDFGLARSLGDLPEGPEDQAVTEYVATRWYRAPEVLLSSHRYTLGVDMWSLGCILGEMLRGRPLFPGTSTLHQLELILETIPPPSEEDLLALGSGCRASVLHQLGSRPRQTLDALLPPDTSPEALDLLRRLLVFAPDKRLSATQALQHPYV
- Measurement description: DSF Tm panel
- Assay type: binding
- Measurement context: 10 μM compound
Observable: ΔTm at 10 µM (°C)
Please respond with the number in °C and leave the unit unwritten.

Answered cases to consult:
O=C(NCc1ccc(C(F)(F)F)cc1)Nc1ccc2cc1OCCOCCNc1ccn3ncc-2c3n1 [compound 28]: 0.5
O=C(NCc1ccc(Cl)cc1F)Nc1ccc2cc1OCCOCCNc1ccn3ncc-2c3n1 [compound 21]: 1.8

*Q* Returns the measured ΔTm at 10 µM for the input compound. Input: CN1CCN(C(=O)Nc2ccc3cc2OCCOCCNc2ccn4ncc-3c4n2)CC1 [compound 35]
*A* 2

*Q* Another compound: Cc1ccc(F)cc1CNC(=O)Nc1ccc2cc1OCCOCCNc1ccn3ncc-2c3n1 [compound 26]
*A* 2.4

*Q* Next entry: O=C(NCc1ccccc1C(F)(F)F)Nc1ccc2cc1OCCOCCNc1ccn3ncc-2c3n1 [compound 27]
*A* 2.4

*Q* Next compound up: Cc1cc(Br)ccc1CNC(=O)Nc1ccc2cc1OCCOCCNc1ccn3ncc-2c3n1 [compound 24]
*A* 0.7

*Q* Try Cc1cc(Cl)ccc1CNC(=O)Nc1ccc2cc1OCCOCCNc1ccn3ncc-2c3n1 [compound 23] next.
*A* 0.8

*Q* Repeat for the following compound: COc1ccccc1CNC(=O)Nc1ccc2cc1OCCOCCNc1ccn3ncc-2c3n1 [compound 29]
*A* 3.3

*Q* Same question for O=C(NCc1cccc(Cl)c1)Nc1ccc2cc1OCCOCCNc1ccn3ncc-2c3n1 [compound 18] please.
*A* 2.3

*Q* Also need O=C(NCc1ccccc1)Nc1ccc2cc1OCCOCCNc1ccn3ncc-2c3n1 [compound 16] , thanks.
*A* 4.9

*Q* Please give the result for O=C(NCc1ccc(Cl)cc1Cl)Nc1ccc2cc1OCCOCCNc1ccn3ncc-2c3n1 [compound 20] too.
*A* 1.3

*Q* Note, next up: C[C@H](NC(=O)Nc1ccc2cc1OCCOCCNc1ccn3ncc-2c3n1)c1ccccc1 [compound 34]
*A* 2.1

*Q* COc1ccc(CNC(=O)Nc2ccc3cc2OCCOCCNc2ccn4ncc-3c4n2)cc1F [compound 32] , same question.
*A* 2.5

*Q* Now try O=C(NCc1ccc(Cl)cc1)Nc1ccc2cc1OCCOCCNc1ccn3ncc-2c3n1 [compound 19] .
*A* 1.8
